- Tested on: ryegrass, Italian (Italian ryegrass, Lolium multiflorum)
- ASSAY_NOTES: Test A preemergence
- Type: in vivo
- CONDITION_DETAILS: Lolium multiflorum, pre-emergence, 240 h, 125 g ai/ha, preemergence; visual injury rating, 0 to 100 scale where 0 is no effect and 100 is complete control; approximately 10 d; read-out: Ryegrass, Italian plant response rating
- Excerpt: […]
MEASURED_PARAMETER: pest or weed control at 125 g/ha (%)
Expressed in %, but write only the number.

Cc1cccc([C@H]2CN(C)C(=O)[C@@H]2C(=O)Nc2ccc(F)c(F)c2F)c1 [Compound 1231]	40
N#Cc1cc([C@H]2CNC(=O)[C@@H]2C(=O)Nc2ccccc2F)ccc1F [Compound 1199]	0
Cc1cc(F)cc([C@H]2CNC(=O)[C@@H]2C(=O)Nc2cccc(F)c2C)c1 [Compound 1308]	0

Now consider the entry below.
// pest or weed control at 125 g/ha lookup, compound = Cc1cc([C@H]2CNC(=O)[C@@H]2C(=O)Nc2ccccc2S(C)(=O)=O)ccc1Cl [Compound 1246] , result: 0
